# experimental_system: T1, EsCas13d, nuclease-dead (Eubacterium siraeum, UniProt B0MS50, R295A;H300A;R849A;H854A)
# T1 sequence: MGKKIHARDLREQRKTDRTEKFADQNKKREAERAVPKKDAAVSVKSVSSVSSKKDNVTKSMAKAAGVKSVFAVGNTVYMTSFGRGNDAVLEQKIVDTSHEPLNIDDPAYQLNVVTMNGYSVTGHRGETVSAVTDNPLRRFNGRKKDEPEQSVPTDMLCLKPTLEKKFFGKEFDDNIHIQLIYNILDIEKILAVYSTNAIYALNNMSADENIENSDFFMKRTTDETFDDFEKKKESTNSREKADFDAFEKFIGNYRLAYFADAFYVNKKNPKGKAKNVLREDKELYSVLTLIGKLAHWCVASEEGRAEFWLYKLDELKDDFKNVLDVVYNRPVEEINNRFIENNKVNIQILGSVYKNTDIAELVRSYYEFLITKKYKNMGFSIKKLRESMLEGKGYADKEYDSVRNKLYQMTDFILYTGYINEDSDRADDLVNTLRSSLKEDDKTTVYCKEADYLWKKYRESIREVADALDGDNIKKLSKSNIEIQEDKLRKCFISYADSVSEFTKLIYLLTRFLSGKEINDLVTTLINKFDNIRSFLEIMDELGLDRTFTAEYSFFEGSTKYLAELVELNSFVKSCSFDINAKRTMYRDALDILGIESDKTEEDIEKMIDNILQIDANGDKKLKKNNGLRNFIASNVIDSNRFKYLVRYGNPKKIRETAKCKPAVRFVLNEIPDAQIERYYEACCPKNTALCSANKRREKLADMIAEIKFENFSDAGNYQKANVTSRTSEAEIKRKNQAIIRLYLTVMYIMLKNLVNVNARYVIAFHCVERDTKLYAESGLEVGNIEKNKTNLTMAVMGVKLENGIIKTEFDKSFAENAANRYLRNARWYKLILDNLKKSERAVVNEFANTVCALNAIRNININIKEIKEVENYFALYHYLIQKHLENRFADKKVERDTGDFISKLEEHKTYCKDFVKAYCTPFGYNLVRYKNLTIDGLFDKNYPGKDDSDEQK
# assay: crRNA (strand 1, pre-loaded); Mg2+; 40 mM Tris-HCl pH 7.5, 150 mM NaCl, 6 mM MgCl2, 1 mM DTT, 0.1% Tween-20, 0.2 mg/ml BSA; 25 C; 10 min per concentration, then washed
# particulars: tags: His6-TwinStrep-SUMO cleaved; N-terminal SNAP kept (SNAP-Surface 488); label: 3' end held by stalled T7 RNA polymerase

binder: target 2 MT 5'PFS CUG 3'PFS CUC (mixed) RNA 1: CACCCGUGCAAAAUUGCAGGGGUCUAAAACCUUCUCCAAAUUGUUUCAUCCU RNA 2: GGGAAUGGAUCCACAUCUACGAAUUCCUGAGGAUGAAACAAUUUGGAGAAGCUCAGAUCGGAAGAGCACACGU
Kd: 5.7 nM
//
binder: target 1 insC 3' of 15,insC 3' of 1 (mixed) RNA 1: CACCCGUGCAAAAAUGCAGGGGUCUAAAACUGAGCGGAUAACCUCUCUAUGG RNA 2: GGGAAUGGAUCCACAUCUACGAAUUCGUACCAUAGAGCAGGUUAUCCGCUCACCCGAGAUCGGAAGAGCACACGU
Kd: 15.6 nM
//
binder: target 3 insG 3' of 7,insG 3' of 5 (mixed) RNA 1: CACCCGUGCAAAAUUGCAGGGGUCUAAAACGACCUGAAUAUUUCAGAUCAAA RNA 2: GGGAAUGGAUCCACAUCUACGAAUUCGUUUUUGAUCUGAAAUAUUGCAGGGUCUGCAGAUCGGAAGAGCACACGU
Kd: 46.5 nM
//
binder: target 1 MT 5'PFS GUC 3'PFS CCU (mixed) RNA 1: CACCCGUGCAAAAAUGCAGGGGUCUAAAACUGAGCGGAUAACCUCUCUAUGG RNA 2: GGGAAUGGAUCCACAUCUACGAAUUCGUCCCAUAGAGAGGUUAUCCGCUCACCUAGAUCGGAAGAGCACACGU
Kd: 15.3 nM
